RUN PARAMETERS: 323.15 K; 10000 kPa; Liquid; Vibrating tube method
± gives the expanded uncertainty stated by the source.
METRIC NAME: mass density
Include the unit after the number when you answer.

# count of solved cases: 2
CCCC[n+]1ccccc1.F[B-](F)(F)F [1-butylpyridinium tetrafluoroborate] | 1201.77 ± 0.47 kg/m3
CCC[n+]1ccccc1Oc1ccc(Cl)c[n+]1CCOS(=O)(=O)[O-].F[B-](F)(F)F | 1239.98 ± 0.52 kg/m3

query: // returns reported mass density for input CCCCCCCC[n+]1cccc(C)c1.F[B-](F)(F)F [N-octyl-3-methylpyridinium tetrafluoroborate]
result: 1084.69 ± 1.1 kg/m3

query: // returns reported mass density for input CCCC[n+]1ccccc1.O=S(=O)([O-])C(F)(F)F [1-butylpyridinium trifluoromethanesulfonate]
result: 1302.15 ± 0.6 kg/m3

query: // returns reported mass density for input CCCC[n+]1cccc(C)c1.N#C[N-]C#N [1-butyl-3-methylpyridinium dicyanamide]
result: 1038.36 ± 0.93 kg/m3
